B1: glmS ribozyme (parent)
chain: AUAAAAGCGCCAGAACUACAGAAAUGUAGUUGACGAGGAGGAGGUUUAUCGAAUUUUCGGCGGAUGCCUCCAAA

Variants of: B1
Assay: kcat; higher = faster cleavage; RNA array
Conditions: with glucosamine-6-phosphate
This sample holds only a part of the variants without activity.
endpoint: kcat (s⁻¹)
Answers are plain numbers, in s⁻¹.

Some solved cases for reference:
G13C C67G :: 1.33e-05
U31C U57A :: 2.49e-05
A15U C68G :: 4.37e-05
A12C C68U :: 0.000589
C67G :: 0.00185
G13U U47C :: 7.04e-05
C50G G60C U69A :: 8.12e-05
U46A C58A :: 2.63e-05

Working through the 2 variants below one at a time, give kcat for each.
1. U47G A53G U57C C68U
2. U49A C68A

9.73e-05
1.25e-05
